Values from patent US20200109188A1

- measured-target: HA of ca A/Sydney/5/97 (H3N2) virus (influenza A virus)
- test-description: cell-based or functional assay
parameter: Neutralization IC50, H3-Syd97 (µg/mL)
Write the number in µg/mL without appending the unit.

Noted for Antibody 6 (antibody, V domains shown) VH: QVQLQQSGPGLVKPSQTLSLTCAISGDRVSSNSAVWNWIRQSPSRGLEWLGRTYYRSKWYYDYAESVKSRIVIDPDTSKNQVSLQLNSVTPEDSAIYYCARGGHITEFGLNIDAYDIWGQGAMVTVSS VL: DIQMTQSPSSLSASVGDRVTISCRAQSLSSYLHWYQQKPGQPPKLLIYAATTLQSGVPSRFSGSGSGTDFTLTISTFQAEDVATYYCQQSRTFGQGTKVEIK : its Neutralization IC50, H3-Syd97 reads 6.54
